The measured values listed here are drawn from patent US20180282402A1.

Molecular target: T1, Human HARS (human, UniProt P12081 1-509, limits assumed)
T1 construct: also called human HRS; human histidyl-tRNA synthetase
T1 sequence: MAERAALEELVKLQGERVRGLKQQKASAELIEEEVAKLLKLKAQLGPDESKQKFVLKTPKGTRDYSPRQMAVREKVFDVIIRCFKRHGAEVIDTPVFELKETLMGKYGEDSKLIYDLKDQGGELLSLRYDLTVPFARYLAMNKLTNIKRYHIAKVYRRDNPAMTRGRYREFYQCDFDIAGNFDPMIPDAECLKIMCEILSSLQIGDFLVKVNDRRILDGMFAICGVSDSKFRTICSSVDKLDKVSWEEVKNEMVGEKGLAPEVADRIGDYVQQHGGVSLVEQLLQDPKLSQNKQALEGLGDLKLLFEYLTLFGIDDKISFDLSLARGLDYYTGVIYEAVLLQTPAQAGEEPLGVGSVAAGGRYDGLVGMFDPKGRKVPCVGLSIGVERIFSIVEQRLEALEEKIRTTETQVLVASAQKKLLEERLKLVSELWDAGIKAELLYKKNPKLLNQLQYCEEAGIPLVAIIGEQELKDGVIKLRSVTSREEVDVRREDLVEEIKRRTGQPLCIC
Assay: SPR (ProteOn); HRS protein immobilized, antibody as analyte
MEASUREMENT_TYPE: Kd (nM)
Number in nM, nothing else.

The cases that follow already have their Kd on record.
BINDER	UNIT_STRING	Kd
AB13-259 (IgG1m(zf) kappa) (antibody, V domains shown, Human) VH: QVQLVESGGGLVKPGGSLRLSCAASGFTFSDYYMSWIRQAPGKGLEWVSYISDKSRYTKYTDSVRGRFTISRDNAKNSLYLQMNSLRAEDTAVYYCARYLYQVIAIADAWGQGTLVTVSS VL: DIQMTQSPSSVSASVGDRVTITCRASQGISSWLAWFQQKPGKAPKLLIFVASNLESGVPSRFSGSGSGTDFTLTISSLQPEDFATYYCQQAESFPYTFGQGTKLEIK	nM	0.015
KL31-241 (antibody, V domains shown, Humanized; IgG1m(zf) kappa) VH: QVQLVQSGAEVKKPGASVKVSCKASGYTFTDYCIGWIRQAPGQGLEWMGDICPGDAYTNDNEKFKDRATMTADTSTSTAYMELSSLRSEDTAVYYCARGEEQLGLRNAMDYWGQGTSVTVSS VL: DIVMTQSPDSLAVSLGERATINCQSQSVSTSTYNYMHWYQQKPGQPPKLLIKYASNLESGVPDRFSGSGSGTDFTLTISSLQAEDVATYYCQHSWEIPWTFGGGTKLEIK	nM	1.4
AB04-439 (antibody, V domains shown, Human; IgG1m(zf) kappa) VH: QVQLVESGGGLVKPGGSLRLSCAASGFTFSDYYMTWIRQAPGKGLEWVSYISGSFRYTNYADSVKGRFTISRDNAKNSLYLQMNSLRDEDTAVYFCARYVYQVVAIGDLWGQGTLVTVSS VL: DIQMTQSPSSVSASVGDRVTITCRASQGISSWLAWYQQKPGRAPKLLIFAASSLQSGVPSRFSGSGSGTHFTLTISSLQPEDFATYYCQQAESFPYTFGQGTKLEIK	nM	0.048
AB04-151 (antibody, V domains shown, Human; IgG1m(zf) kappa) VH: QVQLVESGGGLVKPGGSLRLSCAASGFTFSDYYMTWIRQAPGKGLEWVSYISGSFRYTNYADSVKGRFTISRDNAKNSLYLQMNSLRDEDTAVYFCARYVYQVVAIGDYWGQGTLVTVSS VL: DIQMTQSPSSVSASVGDRVTITCRASQGISSWLAWYQQKPGRAPKLLIFAASSLQSGVPSRFSGSGSGTHFTLTISSLQPEDFATYYCQQAKSFPYTFGQGTKLEIK	nM	0.025

// next entry
Problem: Query: Kd; subject: KL31-356 (antibody, IgG4, V domains shown, Humanized; IgG4-2 kappa) VH: QVQLVQSGAEVKKPGASVKVSCKASGYTFTDYCIGWIRQAPGQGLEWMGDICPGDTYTNDNEKFKDRATMTADTSTSTAYMELSSLRSEDTAVYYCARGEEQLGLRNAMDYWGQGTLVTVSS VL: DIVMTQSPDSLAVSLGERATINCQSQSVSTSTYNYMHWYQQKPGQPPKLLIKYASNLESGVPDRFSGSGSGTDFTLTISSLQAEDVATYYCQHSWEIPWTFGGGTKVEIK
Solution: 0.3
